Reference source for all entries: ChEMBL document CHEMBL1201862

- Test system: LOX IMVI
- test_method_notes: NCI tumour cell line growth inhibition, 48 h
Structures can show the parent of a compound that is named as a salt. Calls of active or inactive are those of the source. Cut-off read from the data, not from the text of the source: active = GI50 up to about 1.1 µM and inactive = higher.
measured_quantity: GI50

- Oc1ccc(SCc2cc(O)ccc2O)cc1: 16.6 µM (inactive)
- CCC1CC(=O)N(SCC(N)C(=O)O)C1=O (stereo unspecified): > 100 µM (inactive)
- Fc1ccc(Nc2nc(Cl)c3nc[nH]c3n2)cc1Cl: 75.3 µM (inactive)
- Cc1nc(C(N)=S)sc1C(=O)C/C(=N/N)C(=O)Nc1cccc(Cl)c1C: > 100 µM (inactive)
- CCCCCCCCCCCCOCCCCCCCCC/C=C/c1ccc2c(c1)OCCOCCOCCOCCO2: 19.3 µM (inactive)
- CN(C)CCOC(=O)COc1ccc(Cl)cc1 [CENTROPHENOXINE HYDROCHLORIDE]: > 100 µM (inactive)

====

- System: LXFL 529
- test_method_notes: NCI tumour cell line growth inhibition, 48 h
The source made the active and inactive calls. Cut-off read from the data, not from the text of the source: active = GI50 up to about 1.1 µM and inactive = higher.
Outcome codes: active, inactive

* CC(C)N(C(=O)C12C3C4C5(C#N)C3C1(C#N)C5C42C#N)C(C)C (configuration not stated) | inactive
* CCNC(=O)O/N=C1/C=C2CC[C@@H]3C(CC[C@@]4(C)C3CC[C@@H]4OC(=O)NCC)[C@@]2(C)CC1 (some centres not stated) | inactive
* COC1=C(N)C(=O)c2nc(-c3nc(C(=O)O)c(C)c(-c4ccc(OC)c(OC)c4O)c3N)ccc2C1=O | active
* CC(=O)c1ccc(NC(=O)C(=O)C(C#N)CC(C)(C)C=O)cc1 (configuration not stated) | inactive
* OCC1OC(c2nc(C3=NCCCN3)cs2)C(O)C1O (configuration not stated) | inactive
* C=CCCC12CCCC(=O)C1Sc1ccc3ccccc3c12 (configuration not stated) | inactive
* CCOC(=O)C(N=C(c1ccccc1)c1ccccc1)N(C(=O)OC(C)(C)C)C(=O)OC(C)(C)C (configuration not stated) | inactive

====

- Test system: U-251
- test_method_notes: NCI tumour cell line growth inhibition, 48 h
Calls of active or inactive are those of the source. No stated cut-off is given here; in the data, active = GI50 up to about 1.1 µM and inactive = higher.
measured_quantity: GI50

- CC1=C(O)C(=O)[C@@H]2O[C@@H]2C1=O: 19.4 µM (inactive)
- CCCCc1c2c(nc3c1CCCC3=O)CCCC2: > 100 µM (inactive)
- Clc1ccc(C(c2ccc(Cl)cc2)N2CCNCC2)cc1: 2.02 µM (inactive)
- CC(C)(C)OC(=O)N(CCCCNCc1ccc2ccccc2c1)CCCNCc1ccc2ccccc2c1: 1.89 µM (inactive)
- CCN(CCCOc1ccccc1)CCN(CC)CCCOc1ccccc1: 12.9 µM (inactive)
- CCCCCCCCCCOC1C(C(C)OCCCN(C)C)OC2OC3(CCCCC3)OC21 (stereo not given): 14.5 µM (inactive)
- CC1CC2OC(=O)C3CC(O)CC(=C23)[C@@]12C[C@@H](c1ccoc1)OC2=O (stereo not given in full): > 100 µM (inactive)
- Cc1ccc(S(=O)(=O)N(CCNC(=O)c2cccc(O)c2O)c2cc3c4c(c2)Oc2cccc5c2C4(C)c2c(cccc2O3)O5)cc1: 8.83 µM (inactive)
- CO/C(=N\N=C\c1cccc(Cl)c1)c1ccncc1: > 10 µM (inactive)
- C=C1CC2(C[C@@H](c3ccccc3)O[C@@H](c3ccccc3)C2)OC1=O (stereo not given in full): 15.4 µM (inactive)

====

- System: HCC 2998
- test_method_notes: NCI tumour cell line growth inhibition, 48 h
The source made the active and inactive calls. Rule as the data show it: active = GI50 up to about 1.1 µM and inactive = higher.
List of GI50 values.
measured_quantity: GI50

- CCN(CC)C(=O)c1cc([N+](=O)[O-])c(=O)n2c1[nH]c1ccccc12: > 100 µM (inactive)
- C=CCCC12CCCC(=O)C1Sc1ccc3ccccc3c12 (stereo not drawn): 14.1 µM (inactive)
- CC1CN=C(N(C)C(=O)Nc2ccc(Cl)cc2)S1 (stereo not drawn): 4.29 µM (inactive)

====

- System: HT-29
- test_method_notes: NCI tumour cell line growth inhibition, 48 h
Calls of active or inactive are those of the source. Rule as the data show it: active = GI50 up to about 1.1 µM and inactive = higher.
Outcome codes: 1 (yes) = active, 0 (no) = inactive

* Cc1ccc(SCN2CCCCC2)cc1.O=C(Cl)c1ccc([N+](=O)[O-])cc1 | 0 (no)
* O=C1NC(=O)C2=C1CCC2O (centres undefined) | 0 (no)
* COc1cccc(NC(=O)CC(=O)n2nc(C)c(/N=N/c3ccccc3)c2C)c1 | 0 (no)
* Oc1cc(-c2cccc(Br)c2)nc2cc3c(cc12)OCO3 | 0 (no)
* CC(C)c1cccc(C(C)C)c1NC(=O)C(=O)C1SC(=S)NC1=O (centres undefined) | 0 (no)
* CC(=O)OC(C)c1cc2c(s1)C(=O)c1sccc1C2=O (centres undefined) | 0 (no)
* Cc1cc(OCc2nn(CN3CCN(C)CC3)c(=S)n2/N=C/c2ccc(-c3ccc(Cl)cc3Cl)o2)ccc1Cl | 0 (no)
* CC1=C(Br)C(=O)c2c(O)ccc(O)c2C1=O | 1 (yes)
* O=C(CNc1cccc(Cl)c1)Nn1c(-c2ccccc2)nc2ccccc2c1=O | 0 (no)
* COc1c(C2(c3ccc(F)cc3)SCCCS2)c(=O)c1=O | 0 (no)
* CS(=O)(=O)CCC(N)P(=O)(O)O (centres undefined) | 0 (no)
* CC(=O)N(C(C)=O)n1c(Cc2ccc(C)cc2)nn(C(C)=O)c1=O | 0 (no)
* CCC(=O)/C=C/c1ccccc1 | 0 (no)
* Cc1ccc(Nc2nc(NNC(=O)Cc3ccccc3)nc(NNC(=O)c3ccncc3)n2)cc1 | 0 (no)
* C[P+]1(c2ccccc2)CCCCC1 | 0 (no)
* CCOC(=O)/C(C(=O)Nc1ccc(Cl)cc1)=C(/N)N1CCOCC1 | 0 (no)
* O=P1(Oc2ccc(Cl)cc2Cl)Oc2cc3ccccc3cc2O1 | 0 (no)
* O=C1CC2OCC=C3CN4CCC5(C(=O)O)C(N1)C2C3CC45 (centres undefined) | 0 (no)
* C/N=C(\SC)N(C)c1nc(=[N+](C)C)ss1.[O-][Cl+3]([O-])([O-])[O-] | 0 (no)
* NCOC(=O)Cc1ccc(Br)cc1 | 0 (no)
* CC1CN=C(Nc2ccccc2)S1 (centres undefined) | 0 (no)
* O=c1n(CCCN2CCN(c3cccc(Cl)c3)CC2)nc2n1-c1ccc3ccccc3c1SC2 | 0 (no)
* CC(C)N(C(=O)C12C3C4C5(C#N)C3C1(C#N)C5C42C#N)C(C)C (centres undefined) | 0 (no)
* CCN(CC)CCCNc1n[n+]([O-])c2ccccc2[n+]1[O-] | 0 (no)

====

- Tested on: A549
- test_method_notes: NCI tumour cell line growth inhibition, 48 h
Calls of active or inactive are those of the source. Rule as the data show it: active = GI50 up to about 1.1 µM and inactive = higher.
List of GI50 values.
measured_quantity: GI50

* CCN(CC)CCC(=O)NC1c2ccc(Cl)cc2Oc2c(C)cccc21 (stereo unspecified) | 16.5 µM (inactive)
* CO/N=C(\C)c1cccc(Nc2nc3ccccc3c3occc23)c1 | 13.1 µM (inactive)
* Cc1cc(NS(=O)(=O)c2ccc(NC(=O)c3cccc4cc5ccccc5nc34)cc2)no1 | 22 µM (inactive)
* O=C1c2ccccc2C(=O)N1CC1S(=O)(=O)OCCOS1(=O)=O | > 100 µM (inactive)
* COc1ccc(NC(=O)C2C(=O)N(c3ccc(OC)cc3)C(=O)/C2=N\N)cc1 (stereo unspecified) | > 100 µM (inactive)
* COc1ccc(/C=C(\C#N)c2nc(N)nc(N3N=C(C)CC3(C)C)n2)c(O)c1 | 18.8 µM (inactive)
* CC(C)(C)OC(=O)NC(Cc1ccc([N+](=O)[O-])cc1)C(=O)NC(CCCCNC(=O)OCc1ccccc1)C(=O)ON1C(=O)CCC1=O (stereo unspecified) | > 100 µM (inactive)
* CC1=C(O)C(=O)[C@@H]2O[C@@H]2C1=O | 27.3 µM (inactive)
* O=C(O)CCc1cccc2c1oc1c(CCC(=O)O)cccc12 | > 100 µM (inactive)
* C=C1CC2(C[C@@H](c3ccccc3)O[C@@H](c3ccccc3)C2)OC1=O (stereo partly specified) | 5.89 µM (inactive)
* COc1cc2c(c3nc4ccccc4nc13)-c1ccc(SC)c(=O)cc1[C@@H](NC(C)=O)CC2 | 0.377 µM (active)
* Cc1c(Cl)cccc1NC(=O)CC1C(=O)Nc2ccccc2S1(=O)=O (stereo unspecified) | 18.2 µM (inactive)
* CCCCCCCCCOC(=S)NCCCCC | 28.2 µM (inactive)
* COc1ccc(OC)c2c(C(C)=O)cccc12 | > 100 µM (inactive)
* Cc1cc(Cl)ccc1NC(=O)/C(CC(=O)CC(c1ccccc1)c1c(O)c2ccccc2oc1=O)=N\O (stereo unspecified) | > 100 µM (inactive)
* CCOc1ccc(NC(=O)/C=C/c2ccco2)cc1 | > 100 µM (inactive)
* COC(c1cccc(C(O)(C(F)(F)F)C(F)(F)F)c1)(C(F)(F)F)C(F)(F)F | 16.6 µM (inactive)
* Cn1c(=O)c2nc(-c3ccc(Cl)cc3)oc2n(C)c1=O | > 100 µM (inactive)
* COc1ccc(/C=C2\CCC(CCN3CCOCC3)C2=O)cc1 (stereo unspecified) | > 100 µM (inactive)
* CCCCc1c2c(nc3c1CCCC3=O)CCCC2 | > 100 µM (inactive)
* CC(C)=CC[S+]([O-])c1ccccc1NC1=CC(=O)CC(C)(C)C1 (stereo unspecified) | > 100 µM (inactive)
* Cc1[nH]c2ccccc2c1CC/C(=N\Nc1ccccc1)c1ccccc1 | > 100 µM (inactive)
* Nc1nc(N)c2ncn(Cc3ccccc3CO)c2n1 | > 100 µM (inactive)
* CC(C)c1cccc(C(C)C)c1NC(=O)C(=O)C1SC(=S)NC1=O (stereo unspecified) | > 100 µM (inactive)
* O=C(Nc1nc(C23CC4CC(CC(C4)C2)C3)cs1)c1cc2cc([N+](=O)[O-])ccc2oc1=O | 70.5 µM (inactive)
* CCOC(=O)c1nc2cc(N3CCOCC3)c(F)cc2[nH]c1=O | > 100 µM (inactive)
* CCCCCCCCCCCCOCCCCCCCCC/C=C/c1ccc2c(c1)OCCOCCOCCOCCO2 | 17.6 µM (inactive)
* CCOc1cccc2nc3cccc(C(=O)NCCN(C)C)c3nc12 | 0.942 µM (active)
* COC(=O)NN1C(C)=C(C(=O)OC)C2(C#N)C(C(=O)OC)=C(C)N(NC(=O)OC)C12N (stereo unspecified) | > 100 µM (inactive)
* COc1cc2c(c(OC)c1OC)-c1ccc(OC)c(=O)cc1[C@@H](N(C)C=O)CC2 | 0.0246 µM (active)
* COc1cc(Nc2cc(Cl)cc(Cl)c2)nc(N)n1 | 19.9 µM (inactive)
* Cc1nc(C(N)=S)sc1C(=O)C/C(=N/N)C(=O)Nc1cccc(Cl)c1C | > 100 µM (inactive)
* C=CCC1[C@@H](C(C)(C)C(C(C)=O)C(=O)C(=O)OC)OC(C(C)(C)C)N1C(=O)OC (stereo partly specified) | > 100 µM (inactive)
* C[C@@H]1[C@@H](C)C(c2ccccc2)O[Si]1(C(C)(C)C)C(C)(C)C (stereo partly specified) | 16.6 µM (inactive)
* O=C1OC[C@H]2[C@@H]1[C@H]1O[C@@H]2C2=C(CCC2)C1=O | > 100 µM (inactive)
* Oc1ccc2ccccc2c1/N=N/c1cc(Cl)ccc1Cl | 17 µM (inactive)
* Cc1cccc2c1Oc1cc(Cl)ccc1C2NC(=O)CN(C)C (stereo unspecified) | > 100 µM (inactive)
* CCN(CC)C(=O)c1cc([N+](=O)[O-])c(=O)n2c1[nH]c1ccccc12 | > 100 µM (inactive)
* C/C=C(\C)c1cc(O)c(C)c2c1Oc1cc(O)c(Cl)c(C)c1C(=O)O2 | 31.6 µM (inactive)
* CC[C@](C)(O)C(=O)O[C@H]1C(=O)O[C@@H]2C[C@H]3C(C)=CC(=O)[C@@H](O)[C@]3(C)[C@H]3[C@@]4(O)OC[C@]32[C@@H]1[C@@H](C)[C@H]4O | 1.21 µM (inactive)
* CCOC(=O)C1(Br)C(c2ccccc2)NC(=O)NC1(C)Br (stereo unspecified) | > 100 µM (inactive)
